Reported pKi values for a set of compounds
# Assay Info: Displacement of [3H]-DTG from sigma 2 receptor in guinea pig brain membranes after 120 mins by microbeta scintillation counting method
pKi: −log10 of the molar value.

Compound	pKi
O[C@H](CCCN1CCC(O)(c2ccc(Cl)cc2)CC1)c1ccc(F)cc1	7.49
CCCC(CCC)C(=O)OC(CCCN1CCC(O)(c2ccc(Cl)cc2)CC1)c1ccc(F)cc1 (racemic)	6.91

These data points were gathered from ChEMBL document CHEMBL5030538.
